# experimentalDetails: Therapeutic index, ratio of CC50 for human HuH7 cells to EC50 for antiviral activity against HCV infected in human HuH7-luc/neo cells assessed as inhibition of DNA replication i
# conditionParameters: HuH7 cells (CC50) and HCV-infected HuH7-luc/neo cells (EC50)
Label rule met when selectivity ratio is strictly below 20; otherwise label rule not met.

Reference set, count: 3
Cc1nc2ccccc2n1Cc1ccc(C(=O)NO)cc1: rule not met
O=C(NO)c1ccc(-c2ccccc2)cc1: rule not met
CCCNNC(=O)c1ccc(Cn2c3c(c4ccccc42)CN(C)CC3)cc1: rule not met

Lookup: Say whether its selectivity ratio is strictly beneath 20. Entry: CCCNNC(=O)CCCCCCC(=O)Nc1ccccc1
Found: rule met

Lookup: // query: CCCNNC(=O)/C=C/c1ccccc1
Found: rule met

Lookup: // query: CCCNNC(=O)/C=C/c1cccc(S(=O)(=O)Nc2ccccc2)c1
Found: rule met

Lookup: // query: CCCNNC(=O)c1ccc(-c2ccccc2)cc1
Found: rule met

Lookup: // query: CCCNNC(=O)c1ccccc1
Found: rule not met

The measurements presented in this section are drawn from ChEMBL document CHEMBL4433239.
